- System: C. jejuni 81–176
- assay.overview: Single step resistance assay at lethal dose (5X MIC) on solid media
- Assay type: cell-based, Campylobacter jejuni
- condition: solid MH agar with 5X MIC, 5 days, 42°C; resistant colonies observed yes/no
property.name: Resistance, single step 5X MIC

Field: example entries. Status: answers known.
molecule: COc1ccc(CN2CCN(c3ccc(F)cc3)CC2)cc1C
Resistance, single step 5X MIC: No
//
molecule: Cc1c(C(C)NCc2cccc(OC3CCCC3)c2)cnn1-c1ccccc1 (stereo not drawn)
Resistance, single step 5X MIC: No
//
molecule: CN(CC(O)COc1ccccc1CNC1(c2ccccc2)CC1)C1CCCCC1 (stereo not drawn)
Resistance, single step 5X MIC: No
//
molecule: CC(=O)Nc1ccc(CN(C)CC2CCCN(CCc3cccc(C(F)(F)F)c3)C2)cc1 (stereo not drawn)
Resistance, single step 5X MIC: No
//
molecule: O=S(=O)(Nc1cccc(C(F)(F)F)c1)c1ccc(Br)cc1
Resistance, single step 5X MIC: No

Query string: Field request: Resistance, single step 5X MIC | item: O=c1c(Cl)c(Cl)cnn1-c1ccccc1Cl
Result string: No
